B1: RIPK4 (parent)
chain: RERMELLEEAKKMEMAKFRYILPV

Variants of: B1
Assay: protein stability index of a GFP-peptide fusion (GPS, HEK-293T) (PSI 1-6); higher = more stable;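 note: lentivirally expressed fusions sorted by FACS into six bins by GFP to DsRed ratio, PSI derived from sequencing read proportions per bin multiplied by bin number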
Settings: c terminus: a fixed tail appended
measure_name: protein stability index
Numbers only.

| sequence_input | measured_number |
| --- | --- |
| RERMELLEEAKKMEMAKFRYIPPV | 4.95 |
| RERMELLEEAKKMELAKFRYILPV | 3.48 |
| RERMELLEWAKKMEMAKFRYILPV | 2.16 |

Required: protein stability index, one value per variant below.
1. RERMELLEEIKKMEMAKFRYILPV
2. RERMELLEEAKKFEMAKFRYILPV
3. RERMELLEEAKYMEMAKFRYILPV
4. RERMELLEGAKKMEMAKFRYILPV
5. RERMELLEEPKKMEMAKFRYILPV
6. RERMELLEEAKKMEGAKFRYILPV
7. RERMELLEEAKKMEMIKFRYILPV
8. RERVELLEEAKKMEMAKFRYILPV

A:
1. 2.82
2. 3.01
3. 2.42
4. 3.79
5. 3.28
6. 3.59
7. 3.02
8. 2.88

The reported numbers originate from the supplement of paper PMC10567573.
